- procedure summary: MetaStable Zone Width (MSZW) in 1-methoxy-2-propanol at 80° C., Lasentec FBRM technology
- Format: physicochemical
- setup conditions: cooling and heating rate 0.2° C./min, from curve fitting
measure name: MSZW 80° C. (°C)

Some molecules with recorded MSZW 80° C.:
CCC(C)Oc1c(OC)cc(/C=C/c2ccc(/C=C/c3cc(OC)c(OC(C)CC)c(OC)c3)cc2)cc1OC (centres unmarked) [SS-04] = 1.6
CCCOc1c(OC)cc(/C=C/c2ccc(/C=C/c3cc(OC)c(OCCC)c(OC)c3)cc2)cc1OC [SS-02] = 4.5
CCC(CC)Oc1c(OC)cc(/C=C/c2ccc(/C=C/c3cc(OC)c(OC(CC)CC)c(OC)c3)cc2)cc1OC [SS-05] = 3.6

P: COc1cc(/C=C/c2ccc(/C=C/c3cc(OC)c(OC)c(OC)c3)cc2)cc(OC)c1OC [SS-01]
Q: COc1cc(/C=C/c2ccc(/C=C/c3cc(OC)c(OC(C)C)c(OC)c3)cc2)cc(OC)c1OC(C)C [SS-03]
Hi there! Just curious which has the higher MSZW 80° C. between P and Q . Answer with the label corresponding to your selection. P
